Listed below: IC50 values for each entry.
# assay procedure: Inhibition of rat intestinal maltase assessed as D-glucose release using maltose as substrate at pH 6.8 by colorimetric method
Please reply with the bare figure in µM and do not write the unit itself.

Value of measured IC50 for the entry `CC(C)(C)c1ccc(CCCCCCC[C@H]2N[C@H](CO)[C@@H](O)[C@@H]2O)cc1.Cl` : 458

Value of measured IC50 for the entry `OC[C@@H]1N[C@@H]([C@H](O)CCCCCCc2ccc(Cl)cc2)[C@H](O)[C@H]1O` : 28

Value of measured IC50 for the entry `OC[C@@H]1N[C@@H]([C@H](O)CCCCCCc2ccc(F)cc2)[C@H](O)[C@H]1O` : 35

Value of measured IC50 for the entry `CC(C)(C)c1ccc(CCCCCC[C@@H](O)[C@@H]2N[C@@H](CO)[C@H](O)[C@H]2O)cc1` : 22

Value of measured IC50 for the entry `OC[C@@H]1N[C@@H]([C@@H](O)CCCCCCc2ccc(Cl)cc2)[C@H](O)[C@H]1O` : 0.33

Value of measured IC50 for the entry `CC(C)(C)c1ccc(CCCCCC[C@H](O)[C@@H]2N[C@@H](CO)[C@H](O)[C@H]2O)cc1` : 0.65

Others:
Value of measured IC50 for the entry `OC[C@@H]1N[C@@H]([C@@H](O)CCCCCCc2ccc(F)cc2)[C@H](O)[C@H]1O` : 0.7

Value of measured IC50 for the entry `OC[C@H]1N[C@H](CCCCCCCc2ccccc2)[C@@H](O)[C@@H]1O` : 1.6

Value of measured IC50 for the entry `Cc1ccc(CCCCCC[C@@H](O)[C@@H]2N[C@@H](CO)[C@H](O)[C@H]2O)cc1` : 13

Value of measured IC50 for the entry `Cl.OC[C@@H]1N[C@@H](CCCCCCCc2ccccc2)[C@H](O)[C@H]1O` : 1.9

Value of measured IC50 for the entry `O=C1CCCC=C1CCCCCCC[C@H]1N[C@H](CO)[C@@H](O)[C@@H]1O` : 66.6

Value of measured IC50 for the entry `Cl.OC[C@H]1N[C@H](CCCCCCCc2ccc(Cl)cc2)[C@@H](O)[C@@H]1O` : 14

Value of measured IC50 for the entry `Cl.OC[C@@H]1N[C@@H]([C@@H](O)CCCCCCc2ccc(F)c(F)c2)[C@H](O)[C@H]1O` : 0.99

Value of measured IC50 for the entry `Cc1ccc(CCCCCC[C@H](O)[C@@H]2N[C@@H](CO)[C@H](O)[C@H]2O)cc1` : 0.88
